Tested on: MDA-MB-435
Assay: Cytotoxicity against human MDA-MB-435 cells after 72 hrs by MTT assay
Assay type: functional, cell-based
Details: MDA-MB-435, 72 h
MEASURED_PROPERTY: IC50 (nM)
Value expressed in nM; do not type the unit.

Consider the worked cases shown below.
{"columns": ["MOLECULE", "READOUT_VALUE"],
 "data": [
  ["COc1ccc(Sc2cc(OC)c(OC)c(OC)c2)cc1", 3],
  ["COc1ccc([S+]([O-])c2cc(OC)c(OC)c(OC)c2)cc1 (stereo not drawn)", 280]
]}

# context switch: different molecule, same IC50
Quote MDA-MB-435 IC50 for entry `COc1ccc(S(=O)(=O)c2cc(OC)c(OC)c(OC)c2)cc1` .
2320
